Exercise: for every item that follows, state its recorded selectivity ratio.
assay: Selectivity index, ratio of IC50 for cytotoxicity against chinese hamster V79 cells to IC50 for cytotoxicity against human SW620 cells; assay type: toxicity, cell-based; settings: V79 cells versus SW620 cells, read-out: Ratio IC50
Answer as a number with no unit attached.

Query `CC[C@@H](C(=O)[C@@H](C)[C@@H](O)[C@H](C)[C@@H]1O[C@@H]([C@@H](CC)C(=O)OCCCC[P+](c2ccccc2)(c2ccccc2)c2ccccc2)CC[C@@H]1C)[C@H]1O[C@]2(C=C[C@@H](O)[C@]3(CC[C@@](C)([C@H]4CC[C@](O)(CC)[C@H](C)O4)O3)O2)[C@H](C)C[C@@H]1C.[Br-]` yields selectivity ratio of 0.9

Query `CC[C@@H](C(=O)[C@@H](C)[C@@H](O)[C@H](C)[C@@H]1O[C@@H]([C@@H](CC)C(=O)OCCCCCC[P+](c2ccccc2)(c2ccccc2)c2ccccc2)CC[C@@H]1C)[C@H]1O[C@]2(C=C[C@@H](O)[C@]3(CC[C@@](C)([C@H]4CC[C@](O)(CC)[C@H](C)O4)O3)O2)[C@H](C)C[C@@H]1C.[Br-]` yields selectivity ratio of 0.2

----------
tested on: Lipid bilayer; assay: Induction of ionic transport in azolectin bilayer membrane assessed as membrane rupture in presence of HEPES buffer by electrophysiology technique
Active and inactive are the calls of the source. No cut-off for these calls is given here.

molecule: CC[C@@H](C(=O)[C@@H](C)[C@@H](O)[C@H](C)[C@@H]1O[C@@H]([C@@H](CC)C(=O)OCCCC[P+](c2ccc(C)cc2)(c2ccc(C)cc2)c2ccc(C)cc2)CC[C@@H]1C)[C@H]1O[C@]2(C=C[C@@H](O)[C@]3(CC[C@@](C)([C@H]4CC[C@](O)(CC)[C@H](C)O4)O3)O2)[C@H](C)C[C@@H]1C.[Br-]
Activity: inactive

molecule: CC[C@@H](C(=O)[C@@H](C)[C@@H](O)[C@H](C)[C@@H]1O[C@@H]([C@@H](CC)C(=O)OCCCC[P+](c2ccccc2)(c2ccccc2)c2ccc(N(C)C)cc2)CC[C@@H]1C)[C@H]1O[C@]2(C=C[C@@H](O)[C@]3(CC[C@@](C)([C@H]4CC[C@](O)(CC)[C@H](C)O4)O3)O2)[C@H](C)C[C@@H]1C.[Br-]
Activity: inactive

molecule: CC[C@@H](C(=O)[C@@H](C)[C@@H](O)[C@H](C)[C@@H]1O[C@@H]([C@@H](CC)C(=O)O)CC[C@@H]1C)[C@H]1O[C@]2(C=C[C@@H](O)[C@]3(CC[C@@](C)([C@H]4CC[C@](O)(CC)[C@H](C)O4)O3)O2)[C@H](C)C[C@@H]1C [SALINOMYCIN]
Activity: inactive

----------
experiment: Cytotoxicity against chinese hamster V79 cells incubated for 72 hrs by MTT assay; format: toxicity, cell-based, Cricetulus griseus
recorded_metric: IC50 at 72 h (nM)
Form entry: value (nM) — number only.

Query `CC[C@@H](C(=O)[C@@H](C)[C@@H](O)[C@H](C)[C@@H]1O[C@@H]([C@@H](CC)C(=O)OCCCC[P+](c2ccccc2OC)(c2ccccc2OC)c2ccccc2OC)CC[C@@H]1C)[C@H]1O[C@]2(C=C[C@@H](O)[C@]3(CC[C@@](C)([C@H]4CC[C@](O)(CC)[C@H](C)O4)O3)O2)[C@H](C)C[C@@H]1C.[Br-]` yields IC50 at 72 h of 640

Query `CC[C@@H](C(=O)[C@@H](C)[C@@H](O)[C@H](C)[C@@H]1O[C@@H]([C@@H](CC)C(=O)O)CC[C@@H]1C)[C@H]1O[C@]2(C=C[C@@H](O)[C@]3(CC[C@@](C)([C@H]4CC[C@](O)(CC)[C@H](C)O4)O3)O2)[C@H](C)C[C@@H]1C` yields IC50 at 72 h of 1440

Query `CC[C@@H](C(=O)[C@@H](C)[C@@H](O)[C@H](C)[C@@H]1O[C@@H]([C@@H](CC)C(=O)OCCCC[P+](c2ccccc2)(c2ccccc2)c2ccc(N(C)C)cc2)CC[C@@H]1C)[C@H]1O[C@]2(C=C[C@@H](O)[C@]3(CC[C@@](C)([C@H]4CC[C@](O)(CC)[C@H](C)O4)O3)O2)[C@H](C)C[C@@H]1C.[Br-]` yields IC50 at 72 h of 370

Query `CC[C@@H](C(=O)[C@@H](C)[C@@H](O)[C@H](C)[C@@H]1O[C@@H]([C@@H](CC)C(=O)OCCCC[P+](c2ccccc2)(c2ccccc2)c2ccccc2)CC[C@@H]1C)[C@H]1O[C@]2(C=C[C@@H](O)[C@]3(CC[C@@](C)([C@H]4CC[C@](O)(CC)[C@H](C)O4)O3)O2)[C@H](C)C[C@@H]1C.[Br-]` yields IC50 at 72 h of 130

Query `CC[C@@H](C(=O)[C@@H](C)[C@@H](O)[C@H](C)[C@@H]1O[C@@H]([C@@H](CC)C(=O)OCCCCCC[P+](c2ccccc2)(c2ccccc2)c2ccccc2)CC[C@@H]1C)[C@H]1O[C@]2(C=C[C@@H](O)[C@]3(CC[C@@](C)([C@H]4CC[C@](O)(CC)[C@H](C)O4)O3)O2)[C@H](C)C[C@@H]1C.[Br-]` yields IC50 at 72 h of 630

Query `CCCC[P+](CCCC)(CCCC)CCCCCCOC(=O)[C@H](CC)[C@H]1CC[C@H](C)[C@H]([C@@H](C)[C@H](O)[C@H](C)C(=O)[C@H](CC)[C@H]2O[C@]3(C=C[C@@H](O)[C@]4(CC[C@@](C)([C@H]5CC[C@](O)(CC)[C@H](C)O5)O4)O3)[C@H](C)C[C@@H]2C)O1.[Br-]` yields IC50 at 72 h of 650

----------
tested on: Staphylococcus aureus; assay: Antimicrobial activity against Staphylococcus aureus ATCC 29213 incubated for 18 hrs by twofold microdilution method; format: functional
recorded_metric: MIC (µg/mL)
Form entry: value (µg/mL) — number only.

Query `CC[C@@H](C(=O)[C@@H](C)[C@@H](O)[C@H](C)[C@@H]1O[C@@H]([C@@H](CC)C(=O)OCCCC[P+](c2ccccc2OC)(c2ccccc2OC)c2ccccc2OC)CC[C@@H]1C)[C@H]1O[C@]2(C=C[C@@H](O)[C@]3(CC[C@@](C)([C@H]4CC[C@](O)(CC)[C@H](C)O4)O3)O2)[C@H](C)C[C@@H]1C.[Br-]` yields MIC of 2

Query `CC[C@@H](C(=O)[C@@H](C)[C@@H](O)[C@H](C)[C@@H]1O[C@@H]([C@@H](CC)C(=O)OCCCCCC[P+](c2ccc(C)cc2)(c2ccc(C)cc2)c2ccc(C)cc2)CC[C@@H]1C)[C@H]1O[C@]2(C=C[C@@H](O)[C@]3(CC[C@@](C)([C@H]4CC[C@](O)(CC)[C@H](C)O4)O3)O2)[C@H](C)C[C@@H]1C.[Br-]` yields MIC of 8

Query `CC[C@@H](C(=O)[C@@H](C)[C@@H](O)[C@H](C)[C@@H]1O[C@@H]([C@@H](CC)C(=O)O)CC[C@@H]1C)[C@H]1O[C@]2(C=C[C@@H](O)[C@]3(CC[C@@](C)([C@H]4CC[C@](O)(CC)[C@H](C)O4)O3)O2)[C@H](C)C[C@@H]1C` yields MIC of 0.5

----------
experiment: Selectivity index, ratio of IC50 for cytotoxicity against human HaCaT cells to IC50 for cytotoxicity against human SW480 cells; type: toxicity, cell-based; conditions: HaCaT cells versus SW480 cells, read-out: Ratio IC50
Exercise: for every item that follows, state its recorded selectivity ratio.
Answer as a number with no unit attached.

Query `CC[C@@H](C(=O)[C@@H](C)[C@@H](O)[C@H](C)[C@@H]1O[C@@H]([C@@H](CC)C(=O)OCCCC[P+](c2ccccc2OC)(c2ccccc2OC)c2ccccc2OC)CC[C@@H]1C)[C@H]1O[C@]2(C=C[C@@H](O)[C@]3(CC[C@@](C)([C@H]4CC[C@](O)(CC)[C@H](C)O4)O3)O2)[C@H](C)C[C@@H]1C.[Br-]` yields selectivity ratio of 1.7

Query `CC[C@@H](C(=O)[C@@H](C)[C@@H](O)[C@H](C)[C@@H]1O[C@@H]([C@@H](CC)C(=O)OCCCCCC[P+](c2ccccc2)(c2ccccc2)c2ccccc2)CC[C@@H]1C)[C@H]1O[C@]2(C=C[C@@H](O)[C@]3(CC[C@@](C)([C@H]4CC[C@](O)(CC)[C@H](C)O4)O3)O2)[C@H](C)C[C@@H]1C.[Br-]` yields selectivity ratio of 1.1

Query `CC[C@@H](C(=O)[C@@H](C)[C@@H](O)[C@H](C)[C@@H]1O[C@@H]([C@@H](CC)C(=O)OCCCCCC[P+](c2ccccc2)(c2ccccc2)c2ccc(N(C)C)cc2)CC[C@@H]1C)[C@H]1O[C@]2(C=C[C@@H](O)[C@]3(CC[C@@](C)([C@H]4CC[C@](O)(CC)[C@H](C)O4)O3)O2)[C@H](C)C[C@@H]1C.[Br-]` yields selectivity ratio of 1.2

Query `CC[C@@H](C(=O)[C@@H](C)[C@@H](O)[C@H](C)[C@@H]1O[C@@H]([C@@H](CC)C(=O)OCc2ccccc2)CC[C@@H]1C)[C@H]1O[C@]2(C=C[C@@H](O)[C@]3(CC[C@@](C)([C@H]4CC[C@](O)(CC)[C@H](C)O4)O3)O2)[C@H](C)C[C@@H]1C` yields selectivity ratio of 2.3

Query `CCCC[P+](CCCC)(CCCC)CCCCOC(=O)[C@H](CC)[C@H]1CC[C@H](C)[C@H]([C@@H](C)[C@H](O)[C@H](C)C(=O)[C@H](CC)[C@H]2O[C@]3(C=C[C@@H](O)[C@]4(CC[C@@](C)([C@H]5CC[C@](O)(CC)[C@H](C)O5)O4)O3)[C@H](C)C[C@@H]2C)O1.[Br-]` yields selectivity ratio of 1.4

Query `CC[C@@H](C(=O)[C@@H](C)[C@@H](O)[C@H](C)[C@@H]1O[C@@H]([C@@H](CC)C(=O)OCCCC[P+](c2ccccc2)(c2ccccc2)c2ccc(N(C)C)cc2)CC[C@@H]1C)[C@H]1O[C@]2(C=C[C@@H](O)[C@]3(CC[C@@](C)([C@H]4CC[C@](O)(CC)[C@H](C)O4)O3)O2)[C@H](C)C[C@@H]1C.[Br-]` yields selectivity ratio of 2.2
